# credit: patent EP4786454A1

This listing pairs molecules with measured pIC50.
TEST_SYSTEM: CYP2D6 (Homo sapiens, UniProt P10635)
Construct: from tissue; host or cells: human liver microsomes
Sequence (P10635 whole entry): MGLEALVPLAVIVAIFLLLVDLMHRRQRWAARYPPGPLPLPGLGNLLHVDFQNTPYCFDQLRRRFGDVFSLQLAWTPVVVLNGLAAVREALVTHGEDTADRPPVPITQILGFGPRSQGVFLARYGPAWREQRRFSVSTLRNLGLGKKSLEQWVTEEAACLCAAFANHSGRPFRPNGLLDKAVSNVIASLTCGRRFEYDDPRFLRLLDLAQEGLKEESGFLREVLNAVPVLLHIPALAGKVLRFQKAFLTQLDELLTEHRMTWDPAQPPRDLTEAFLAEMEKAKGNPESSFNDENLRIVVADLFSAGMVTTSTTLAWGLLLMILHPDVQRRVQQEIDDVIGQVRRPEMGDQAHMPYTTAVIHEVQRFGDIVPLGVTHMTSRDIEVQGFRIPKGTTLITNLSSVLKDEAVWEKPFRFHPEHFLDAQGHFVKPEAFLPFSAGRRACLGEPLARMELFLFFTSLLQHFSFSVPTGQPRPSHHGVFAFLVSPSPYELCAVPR
METHOD: Drug-drug interaction, CYP inhibition in human liver microsomes, cocktail method
Assay type: in vitro ADME
EXPERIMENTAL_CONDITIONS: human liver microsomes, maximum concentration 50.0 µM; read-out: CYP 2D6 (IC50)
pIC50: −log10 of the molar value.

Consider the worked cases shown below.
CC(C)(C)CC(=O)Nc1nc2c(F)cc(C#N)cn2c1C1=CCCC1 | < 4.30
CC(C)(C)CC(=O)Nc1nc2c(F)cc(C#N)cn2c1C12CC(C1)C2 | < 4.30

Then this molecule:
pIC50 recorded for this molecule, `CC(C)(C)CC(=O)Nc1nc2c(C(F)(F)F)cc(C#N)cn2c1C12CC(C1)C2` , is < 4.30

----------
METHOD: Pharmacokinetic evaluation after single intravenous and gavage administration
EXPERIMENTAL_CONDITIONS: mouse, in vivo; CD-1 mice, IV:0.5 PO:2 mg/kg; read-out: Area under the plasma concentration-time curve AUC0-last PO
PROPERTY_LABEL: AUC(0-t) (µM·h)
Express it in µM·h; write the number only.

The recorded AUC(0-t) for `CC(C)(C)CC(=O)Nc1nc2c(F)cc(C#N)cn2c1C1=CCCC1` is 2.35

----------
TEST_SYSTEM: hERG potassium channels (Homo sapiens)
Construct: expressed in transfected cells; host or cells: CHO-hERG
Sequence (Q12809 whole entry): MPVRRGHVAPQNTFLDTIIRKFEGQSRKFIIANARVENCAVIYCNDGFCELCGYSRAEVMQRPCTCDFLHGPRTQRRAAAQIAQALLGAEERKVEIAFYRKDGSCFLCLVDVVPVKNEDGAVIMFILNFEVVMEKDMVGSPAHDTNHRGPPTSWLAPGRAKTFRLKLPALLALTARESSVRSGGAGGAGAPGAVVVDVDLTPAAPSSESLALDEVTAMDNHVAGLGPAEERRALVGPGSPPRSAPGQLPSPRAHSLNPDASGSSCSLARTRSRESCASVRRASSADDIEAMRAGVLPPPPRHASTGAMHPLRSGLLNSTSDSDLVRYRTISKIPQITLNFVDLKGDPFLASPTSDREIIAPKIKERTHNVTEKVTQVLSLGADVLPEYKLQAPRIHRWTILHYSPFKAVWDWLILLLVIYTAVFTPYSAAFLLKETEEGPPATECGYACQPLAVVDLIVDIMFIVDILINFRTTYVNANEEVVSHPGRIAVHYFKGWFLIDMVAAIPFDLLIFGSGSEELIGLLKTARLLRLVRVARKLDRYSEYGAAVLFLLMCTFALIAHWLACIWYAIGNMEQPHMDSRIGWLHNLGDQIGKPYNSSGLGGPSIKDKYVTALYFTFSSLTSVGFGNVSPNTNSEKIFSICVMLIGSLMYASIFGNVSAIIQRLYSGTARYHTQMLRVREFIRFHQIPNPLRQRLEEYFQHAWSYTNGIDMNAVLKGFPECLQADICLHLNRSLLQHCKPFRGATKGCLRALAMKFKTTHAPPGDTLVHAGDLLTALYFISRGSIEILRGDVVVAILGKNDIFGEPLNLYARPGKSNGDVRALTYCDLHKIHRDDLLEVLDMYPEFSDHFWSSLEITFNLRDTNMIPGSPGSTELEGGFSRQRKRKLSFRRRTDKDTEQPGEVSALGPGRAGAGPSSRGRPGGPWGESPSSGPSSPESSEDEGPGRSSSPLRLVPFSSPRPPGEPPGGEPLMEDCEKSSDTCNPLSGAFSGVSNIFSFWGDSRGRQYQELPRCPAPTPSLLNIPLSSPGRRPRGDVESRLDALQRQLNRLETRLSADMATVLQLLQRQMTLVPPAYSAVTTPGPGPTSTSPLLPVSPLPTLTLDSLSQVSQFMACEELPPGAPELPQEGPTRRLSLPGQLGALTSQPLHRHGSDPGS
METHOD: Automated patch-clamp (Qpatch) assay on CHO-hERG cells
Assay type: cell-based
PROPERTY_LABEL: IC50

Entry under test: `CC(C)(C)CC(=O)Nc1nc2c(F)cc(C#N)cn2c1-c1ccc(OC(F)(F)F)cc1` . Its IC50 was > 40 µM

----------
METHOD: Pharmacokinetic evaluation after single intravenous and gavage administration
EXPERIMENTAL_CONDITIONS: mouse, in vivo; CD-1 mice, IV:1 PO:5 mg/kg; read-out: Peak concentration Cmax
PROPERTY_LABEL: Cmax (nM)
Give just the numeric value; nM need not be written.

For `CC(C)(C)CC(=O)Nc1nc2c(F)cc(C#N)cn2c1-c1ccc(OC(F)(F)F)cc1` the molecule record lists Cmax as 355

----------
METHOD: Pharmacokinetic evaluation after single intravenous and gavage administration
EXPERIMENTAL_CONDITIONS: mouse, in vivo; CD-1 mice, IV:1 PO:5 mg/kg; read-out: Half-life T1/2 (IV) (converted)
PROPERTY_LABEL: half-life (min)
Give the quantity in min, number only.

Data point: CC(C)(C)CC(=O)Nc1nc2c(F)cc(C#N)cn2c1-c1ccc(OC(F)(F)F)cc1 [Compound 1] ; half-life = 52.8

----------
METHOD: Plasma protein binding rate, equilibrium dialysis (mouse plasma)
Assay type: in vitro ADME, CD-1 mice
EXPERIMENTAL_CONDITIONS: m (CD-1 mouse plasma), dialysis 4 hours at 37 °C, read-out: Unbound PPB%
Item-by-item account of fraction unbound at 4 h, 2 µM

Solved entries (count: 4):
CC(C)(C)CC(=O)Nc1nc2c(F)cc(C#N)cn2c1C1=CCCC1 [Compound 3] | 0.087
CC(C)(C)CC(=O)Nc1nc2cc3c(cc2n1C1CCC1)CCC3 [Compound 7] | 0.003
CC(C)(C)CC(=O)Nc1nc2cc3c(cc2n1C1(C)CCC1)CCC3 [Compound 9] | 0.002
CC(C)(C)CC(=O)Nc1nc2c(F)cc(C#N)cn2c1-c1ccc(OC(F)(F)F)cc1 [Compound 1] | 0.047

We next turn to a different molecule, shown below.
Input CC(C)(C)CC(=O)Nc1nc2c(F)cc(C#N)cn2c1C12CC(C1)C2 [Compound 5] . Output fraction unbound at 4 h, 2 µM: 0.141

----------
TEST_SYSTEM: CYP3A4 (Homo sapiens, UniProt P08684)
Sequence (P08684 2-503): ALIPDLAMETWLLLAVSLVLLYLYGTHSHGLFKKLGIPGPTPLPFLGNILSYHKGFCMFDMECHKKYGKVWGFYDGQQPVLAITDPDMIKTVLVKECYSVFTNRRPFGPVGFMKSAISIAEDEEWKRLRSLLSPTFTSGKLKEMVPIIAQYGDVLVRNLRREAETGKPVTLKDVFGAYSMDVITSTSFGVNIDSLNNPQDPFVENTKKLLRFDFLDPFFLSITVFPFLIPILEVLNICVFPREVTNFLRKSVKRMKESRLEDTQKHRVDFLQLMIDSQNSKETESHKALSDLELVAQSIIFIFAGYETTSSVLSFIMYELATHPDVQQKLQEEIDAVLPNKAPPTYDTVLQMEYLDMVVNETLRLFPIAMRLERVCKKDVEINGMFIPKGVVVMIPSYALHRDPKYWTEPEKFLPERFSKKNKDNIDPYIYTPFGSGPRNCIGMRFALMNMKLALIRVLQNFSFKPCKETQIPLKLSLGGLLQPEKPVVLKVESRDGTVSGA
METHOD: Drug-drug interaction, CYP inhibition in human liver microsomes, cocktail method
Assay type: in vitro ADME
EXPERIMENTAL_CONDITIONS: human liver microsomes, maximum concentration 50.0 µM; read-out: CYP 3A4 (IC50)
PROPERTY_LABEL: IC50 at 10 min

CC(C)(C)CC(=O)Nc1nc2c(F)cc(C#N)cn2c1C1=CCCC1 | > 50 µM
CC(C)(C)CC(=O)Nc1nc2c(F)cc(C#N)cn2c1C12CC(C1)C2 | > 50 µM

Record `CC(C)(C)CC(=O)Nc1nc2c(C(F)(F)F)cc(C#N)cn2c1C12CC(C1)C2` . Reported IC50 at 10 min: > 50 µM

----------
TEST_SYSTEM: UniProt P08684
METHOD: Drug-drug interaction, CYP inhibition in human liver microsomes, cocktail method
Assay type: in vitro ADME
EXPERIMENTAL_CONDITIONS: human, microsomes
PROPERTY_LABEL: IC50 at 10 min (µM)
The response must be a number in µM with no trailing unit.

Value of measured IC50 at 10 min for the entry `CC(C)(C)CC(=O)Nc1nc2c(F)cc(C#N)cn2c1-c1ccc(OC(F)(F)F)cc1` : 14

----------
Catalogue of CLint scaled at 1 µM readings, one per entry.
METHOD: Stability in liver microsomes (dog)
Assay type: in vitro ADME, beagle dogs
EXPERIMENTAL_CONDITIONS: d (beagle dog liver microsomes), 0.5 mg/mL, read-out: MMS Clint

Answered cases to consult:
CC(C)(C)CC(=O)Nc1nc2c(F)cc(C#N)cn2c1-c1ccc(OC(F)(F)F)cc1 | 16 mL/min/kg
CC(C)(C)CC(=O)Nc1nc2c(F)cc(C#N)cn2c1C1=CCCC1 | < 14 mL/min/kg

CLint scaled at 1 µM reported for this compound `CC(C)(C)CC(=O)Nc1nc2c(F)cc(C#N)cn2c1C12CC(C1)C2` : < 13.8 mL/min/kg

----------
TEST_SYSTEM: CYP2C9 (Homo sapiens)
Construct: from tissue; host or cells: human liver microsomes
METHOD: Drug-drug interaction, CYP inhibition in human liver microsomes, cocktail method
Type: in vitro ADME
Experimental: The inhibitory effects of compounds on the activity of human liver microsomal cytochrome P450 isoenzymes (CYP1A2, CYP2C9, CYP2C19, CYP2D6, and CYP3A) were evaluated using a cocktail method with specific probe substrates for CYP1A2, CYP2C9, CYP2C19, CYP2D6, and CYP3A. Human liver microsomes, probe substrates, positive control inhibitor, and reduced nicotinamide adenine dinucleotide phosphate. […]
PROPERTY_LABEL: IC50 (µM)
Express it in µM; write the number only.

# IC50 (compound: `CC(C)(C)CC(=O)Nc1nc2c(F)cc(C#N)cn2c1-c1ccc(OC(F)(F)F)cc1` ) is 46

----------
TEST_SYSTEM: CYP2C9 (Homo sapiens, UniProt P11712)
Construct: from tissue; host or cells: human liver microsomes
Sequence (P11712 whole entry): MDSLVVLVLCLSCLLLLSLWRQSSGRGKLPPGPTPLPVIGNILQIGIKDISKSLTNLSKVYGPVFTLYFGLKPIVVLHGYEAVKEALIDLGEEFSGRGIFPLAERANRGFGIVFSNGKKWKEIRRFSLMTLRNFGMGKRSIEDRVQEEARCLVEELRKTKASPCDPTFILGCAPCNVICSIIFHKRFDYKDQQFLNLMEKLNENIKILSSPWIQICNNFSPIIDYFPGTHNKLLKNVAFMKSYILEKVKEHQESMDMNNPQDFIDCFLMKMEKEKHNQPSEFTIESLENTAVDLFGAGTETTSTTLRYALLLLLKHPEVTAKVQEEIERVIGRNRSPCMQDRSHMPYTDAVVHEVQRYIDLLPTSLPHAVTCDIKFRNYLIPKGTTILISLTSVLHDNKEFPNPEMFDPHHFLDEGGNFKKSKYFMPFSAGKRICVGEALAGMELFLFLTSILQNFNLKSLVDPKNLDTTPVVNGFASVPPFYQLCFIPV
METHOD: Drug-drug interaction, CYP inhibition in human liver microsomes, cocktail method
Assay type: in vitro ADME
EXPERIMENTAL_CONDITIONS: human liver microsomes, maximum concentration 50.0 µM; read-out: CYP 2C9 (IC50)
pIC50: −log10 of the molar value.
PROPERTY_LABEL: pIC50

Known results for compounds:
CC(C)(C)CC(=O)Nc1nc2c(F)cc(C#N)cn2c1C1=CCCC1 | < 4.30
CC(C)(C)CC(=O)Nc1nc2c(C(F)(F)F)cc(C#N)cn2c1C12CC(C1)C2 | < 4.30

Entry `CC(C)(C)CC(=O)Nc1nc2c(F)cc(C#N)cn2c1C12CC(C1)C2` — recorded pIC50 = < 4.30

----------
METHOD: Pharmacokinetic evaluation after single intravenous and gavage administration
EXPERIMENTAL_CONDITIONS: mouse, in vivo; CD-1 mice, IV:0.5 PO:2 mg/kg; read-out: Half-life T1/2 (IV) (converted)
PROPERTY_LABEL: half-life
Please don't drop the unit; write it after the number.

Short answer for CC(C)(C)CC(=O)Nc1nc2c(F)cc(C#N)cn2c1C1=CCCC1 [Compound 3] : half-life was 30 min

----------
METHOD: Plasma protein binding rate, equilibrium dialysis (monkey plasma)
Assay type: in vitro ADME, cynomolgus monkeys
EXPERIMENTAL_CONDITIONS: c (cynomolgus monkey plasma), dialysis 4 hours at 37 °C, read-out: Unbound PPB%
fraction unbound at 4 h, 2 µM of 0.1 or higher: class 1. Under 0.1: class 0.

CC(C)(C)CC(=O)Nc1nc2c(F)cc(C#N)cn2c1C12CC(C1)C2 | class 1
CC(C)(C)CC(=O)Nc1nc2c(F)cc(C#N)cn2c1-c1ccc(OC(F)(F)F)cc1 | class 0
CC(C)(C)CC(=O)Nc1nc2cc3c(cc2n1C1(C)CCC1)CCC3 | class 0
CC(C)(C)CC(=O)Nc1nc2cc3c(cc2n1C1CCC1)CCC3 | class 0

Continue with the compound presented below.
For this compound, is measured fraction unbound at 4 h, 2 µM 0.1 or higher? `CC(C)(C)CC(=O)Nc1nc2c(F)cc(C#N)cn2c1C1=CCCC1`
class 1
